FYI, the data here is from patent US20240246964A1.

molecular target: human PD-L1 (Homo sapiens (Human), UniProt Q9NZQ7); assay: T cell activation luciferase reporter cell culture system (T Cell Activation Assay); assay type: cell-based; settings: luciferase reporter assay; PD-L1 aAPC/CHO-K1 cells with PD-1 effector Jurkat T cells
Sequence (Q9NZQ7 19-290): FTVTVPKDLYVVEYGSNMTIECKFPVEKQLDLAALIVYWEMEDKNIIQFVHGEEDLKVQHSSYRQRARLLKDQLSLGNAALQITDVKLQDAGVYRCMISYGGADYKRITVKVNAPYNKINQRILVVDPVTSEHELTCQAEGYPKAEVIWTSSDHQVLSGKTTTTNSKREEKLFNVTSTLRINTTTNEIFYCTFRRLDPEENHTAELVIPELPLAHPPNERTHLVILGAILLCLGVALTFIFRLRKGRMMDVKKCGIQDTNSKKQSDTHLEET
Doc: threshold 80 nM (exclusive). Items with EC50 beneath it return true (1); others return false (0).

Study these solved cases before continuing.
COc1cc(-c2nccc(-c3cccc(-c4ccc(CN5CC6(CNC(=O)C6)C5)c(OC)n4)c3C)c2Cl)ccc1CN1CC2(CNC(=O)C2)C1	true (1)
COCCNCc1cn(C)c2cc(-c3nccc(-c4cccc(-c5ccc(CNC[C@@H]6CCC(=O)N6)c(OC)n5)c4Cl)c3Cl)ccc12	false (0)
COc1nc(-c2cccc(-c3ccnc(-c4cc(F)c5c(c4)CCN(CCCF)C5)c3Cl)c2Cl)ccc1CNC[C@@H]1CCC(=O)N1	false (0)
COc1cc(-c2ncnc(-c3cccc(-c4ccc(CNCCO)c(OC)n4)c3Cl)c2Cl)ccc1CN1CC2(CNC(=O)C2)C1	false (0)
COc1cc(-c2nccc(-c3cccc(-c4ccc(CN[C@@H]5CCN(C(C)=O)C5)c(OC)n4)c3Cl)c2Cl)ccc1CN[C@@H]1CCN(C(C)=O)C1	true (1)
COc1nc(-c2cccc(-c3ccnc(-c4ccc5c(c4)S(=O)(=O)CCN(C)C5)c3Cl)c2Cl)ccc1CNC[C@@H]1CCC(=O)N1	false (0)
CCOc1cc(-c2nccc(-c3cccc(-c4ccc(CNC5CCN(C(C)=O)CC5)c(OC)n4)c3Cl)c2Cl)cn2nc(CN[C@H]3C[C@](C)(O)C3)nc12	false (0)
COc1cc(-c2nccc(-c3cccc(-c4ccc(CN5CC6(COC6)C5)c(OC)n4)c3C(F)(F)F)c2Cl)ccc1CN1CC2(COC2)C1	false (0)
COCC(=O)N1CCC(NCc2ccc(-c3nccc(-c4cccc(-c5ccc(CNC6CCN(C(C)=O)CC6)c(OC)n5)c4Cl)c3Cl)cc2OC)CC1	true (1)
COc1nc(-c2cccc(-c3ccnc(-c4ccc5c(CNC6CCOCC6)cn(C)c5c4)c3Cl)c2Cl)ccc1CNC[C@@H]1CCC(=O)N1	false (0)

(Q) Problem: For the molecule `COc1cc(-c2nccc(-c3cccc(NC(=O)c4ccc(CN5CC6(CNC(=O)C6)C5)cn4)c3C)c2Cl)ccc1CN1CC2(CNC(=O)C2)C1` , is EC50 under 80 nM?
(A) false (0)

(Q) Entry `COc1nc(-c2cccc(-c3ccnc(-c4ccc5c(c4)CCC[C@H]5NC[C@@H]4CCC(=O)N4)c3Cl)c2Cl)ccc1CN[C@H]1CCOC1=O` please
(A) false (0)

(Q) Moving on to the next molecule: `COc1nc(-c2cccc(-c3ccnc(-c4ccc(CN5CC6(C5)CN(C(C)=O)C6)c(OC(F)F)c4)c3Cl)c2Cl)ccc1CN1CC2(CNC(=O)C2)C1`
(A) true (1)

(Q) For `COc1cc(-c2nccc(-c3cccc(-c4ccc(CNC5CCS(=O)(=O)CC5)c(OC)n4)c3Cl)c2Cl)ccc1CNC1CCS(=O)(=O)CC1` then?
(A) true (1)

(Q) Same question, `COc1cc(-c2nccc(-c3cccc(-c4ccc(CNC[C@H](C)O)c(OC)n4)c3Cl)c2Cl)cc2c1CN(CC(N)=O)CC2` this time
(A) false (0)

(Q) What do you get for `COc1cc(-c2nccc(-c3cccc(-c4ccc(CNC5CCN(C(C)=O)CC5)c(OC)n4)c3Cl)c2Cl)ccc1CN1CCOCC1` ?
(A) false (0)

(Q) Would you mind doing `COc1cc(-c2nccc(-c3cccc(-c4ccc([C@H](C)N)c(OC)n4)c3Cl)c2Cl)ccc1[C@H](C)N` as well?
(A) false (0)

(Q) Another molecule to look at: `COc1cc(-c2nccc(-c3cccc(-c4ccc5c(CNC[C@H](C)O)cn(C)c5n4)c3Cl)c2Cl)ccc1CNC[C@@H]1CCC(=O)N1`
(A) true (1)

(Q) Item: `COc1cc(-c2nccc(-c3cccc(-c4ccc(CNC5CCN(C(C)=O)CC5)c(OC)n4)c3Cl)c2C)ccc1CNC1CCN(C(C)=O)CC1`
(A) false (0)

(Q) Now consider `COc1cc(-c2nccc(-c3cccc(-c4ccc5c(CNC[C@@H]6CCO6)cn(C)c5n4)c3Cl)c2Cl)ccc1CNC[C@@H]1CCC(=O)N1` and answer again.
(A) true (1)
